System: E. coli DC2
Format: cell-based, Escherichia coli
Details: E. coli DC2; unit from Table 10
Where a SMILES comes first, the peptide text is derived from it. [ ]: non-standard residue; d: D form. Orn = NCCC[C@H](N)C(=O)O
measurementName: Antibiotic activity (Table 11, ring analogs) (μg/ml)

compound="CC(C)C[C@@H]1NC(=O)[C@H](CCCCN)NC(=O)[C@H](C(C)C)NC(=O)[C@@H]2CCCN2C(=O)[C@@H](Cc2ccc(O)cc2)NC(=O)[C@H](CC(C)C)NC(=O)[C@H](CCCCN)NC(=O)[C@H](C(C)C)NC(=O)[C@H](CCCCN)NC(=O)[C@@H]2CCCN2C(=O)[C@@H](Cc2ccc(O)cc2)NC(=O)[C@H](CCCCN)NC1=O [GS12]" unitspec=μg/ml reported=11
compound="CC(C)C[C@@H]1NC(=O)[C@H](CCCN)NC(=O)[C@H](C(C)C)NC(=O)[C@@H]2CCCN2C(=O)[C@@H](Cc2ccccc2)NC(=O)[C@H](CC(C)C)NC(=O)[C@H](CCCN)NC(=O)[C@H](C(C)C)NC(=O)[C@H](CCCN)NC(=O)[C@@H]2CCCN2C(=O)[C@@H](Cc2ccccc2)NC(=O)[C@H](CCCN)NC1=O [GS12FO, FPVOLOFPOVOL] (cyclo(L[Orn][dF]P[Orn]V[Orn]L[dF]PV[Orn]))" unitspec=μg/ml reported=5

----------
List of Minimum Inhibitory Concentration (activity) values.
Test system: P. aeruginosa H188
Format: cell-based, Pseudomonas aeruginosa
Conditions: H188
measurementName: Minimum Inhibitory Concentration (activity) (µg/mL)

molecule="CC(C)C[C@@H]1NC(=O)[C@H](CCCCN)NC(=O)[C@H](C(C)C)NC(=O)[C@H](CCCCN)NC(=O)[C@@H]2CCCN2C(=O)[C@@H](Cc2ccc(O)cc2)NC(=O)[C@H](CCCCN)NC(=O)[C@H](CC(C)C)NC(=O)[C@H](CCCCN)NC(=O)[C@@H](C(C)C)NC(=O)[C@H](CCCCN)NC(=O)[C@@H]2CCCN2C(=O)[C@@H](Cc2ccc(O)cc2)NC(=O)[C@H](CCCCN)NC1=O [GS14invV2]" unitspec=µg/mL limitsign== reported=9
molecule="CC(C)C[C@@H]1NC(=O)[C@H](CCCCN)NC(=O)[C@H](C(C)C)NC(=O)[C@@H]2CCCN2C(=O)[C@@H](Cc2ccc(O)cc2)NC(=O)[C@H](CC(C)C)NC(=O)[C@H](CCCCN)NC(=O)[C@H](C(C)C)NC(=O)[C@H](CCCCN)NC(=O)[C@H](CC(C)C)NC(=O)[C@@H]2CCCN2C(=O)[C@@H](Cc2ccc(O)cc2)NC(=O)[C@H](C(C)C)NC(=O)[C@H](CCCCN)NC1=O [GS14]" unitspec=µg/mL limitsign=> reported=200
molecule="CC(C)C[C@@H]1NC(=O)[C@H](CCCCN)NC(=O)[C@H](C(C)C)NC(=O)[C@@H]2CCCN2C(=O)[C@@H](Cc2ccc(O)cc2)NC(=O)[C@H](CC(C)C)NC(=O)[C@@H](CCCCN)NC(=O)[C@H](C(C)C)NC(=O)[C@H](CCCCN)NC(=O)[C@H](CC(C)C)NC(=O)[C@@H]2CCCN2C(=O)[C@@H](Cc2ccc(O)cc2)NC(=O)[C@H](C(C)C)NC(=O)[C@H](CCCCN)NC1=O [GS14K11]" unitspec=µg/mL limitsign== reported=5
molecule="CC(C)C[C@@H]1NC(=O)[C@H](CCCCN)NC(=O)[C@@H](C(C)C)NC(=O)[C@@H]2CCCN2C(=O)[C@@H](Cc2ccc(O)cc2)NC(=O)[C@H](CC(C)C)NC(=O)[C@H](CCCCN)NC(=O)[C@H](C(C)C)NC(=O)[C@H](CCCCN)NC(=O)[C@H](CC(C)C)NC(=O)[C@@H]2CCCN2C(=O)[C@@H](Cc2ccc(O)cc2)NC(=O)[C@H](C(C)C)NC(=O)[C@H](CCCCN)NC1=O [GS14V1]" unitspec=µg/mL limitsign== reported=3.1

The reported measurements were obtained from patent US6358921B1.
